test: NCI Yeast Anticancer Drug Screen. Data for the mec2-1 strain (AID 157); details: S. cerevisiae mec2-1 strain, at 50.0 µM
This is part of a sample that, as a whole, favours compounds with a hit. Of some 79,000 tested, about 15% had one in any assay. The source made the active and inactive calls. No stated cut-off is given here; in the data, active means growth inhibition above about 70%; inactive means the rest.
A correct response names exactly one class from active, inactive

Previously resolved entries follow.
O=C(c1ccccc1)c1ccccc1S(=O)(=O)Nc1ccccc1: inactive
COc1cc(OC)c(SSCCCCS(=O)O)c(OC)c1: inactive
CCCCCCCNCCCCCC: inactive
COc1ccc(C2Oc3c(cccc3OC)C=C2[N+](=O)[O-])cc1 (stereo unspecified): inactive
Cc1cc(NS(=O)(=O)c2ccc(Nc3c4ccccc4nc4c(C(=O)NC(CO)(CO)CO)cccc34)cc2)no1: inactive
COC(=O)Nc1nc2ccc(C(=O)c3ccccc3)cc2[nH]1: inactive

stdin: Outcome? CC1CN(CC(O)c2ccc(Br)cc2)CC(C)O1 (stereo unspecified)
stdout: inactive

stdin: So what was the verdict on O=C(CCN1CCCC1)c1ccc(Oc2ccc(F)cc2)cc1 in this test?
stdout: inactive

stdin: Each compound tested received a call. Report the one for CC1=C(C(=O)Nc2ccccc2)C(c2cccc([N+](=O)[O-])c2)C(C(=O)Nc2ccccc2)=C(C)N1 .
stdout: inactive

stdin: For CC#Cc1cc2c(cc1O)CC[C@@H]1[C@@H]2CC[C@]2(C)[C@@H](O)CC[C@@H]12 , what call appears in the results of this test?
stdout: active

stdin: Short answer needed: outcome of this test for COc1cc2c(cc1OC)C(Cl)C(c1ccc(F)cc1)=C2Cl (stereo unspecified) ?
stdout: inactive
